- Experiment description: qHTS of Yeast-based Assay for SARS-CoV PLP; also: nearly all actives have a fitted effect of over 55% in size
- Experimental setup: S. cerevisiae expressing SARS-CoV PLpro; growth rescue; series mostly up to 32.9 µM
About 610 (0.18%) of roughly 330,000 compounds were called active. Inconclusive results (about 2%) are left out. Calls follow the shape of the full dose curve. Shown is part of a subset that was picked to be rich in actives.
Choose one outcome from this list and give only that: t = active, f = inactive

Can you look up the reported call for CCOC(=O)c1sc(/N=C/C2=C(O)CC(C)(C)CC2=O)c(C(=O)OCC)c1C for me?
f

Can you look up the reported call for O=c1c(Cl)c(NCc2ccc(F)cc2Cl)cnn1C12CC3CC(CC(C3)C1)C2 for me?
f

Can you look up the reported call for CC1CN(S(=O)(=O)c2ccccc2)C(C)CN1S(=O)(=O)c1ccccc1 (stereo unspecified) for me?
f

Can you look up the reported call for Cc1cc(C(=O)N/N=C/c2cc([N+](=O)[O-])cc(C)c2O)n[nH]1 for me?
t

Can you look up the reported call for COc1ccc(N(CCC(=O)NCCc2ccccc2)S(=O)(=O)c2ccc(C)cc2C)cc1 for me?
f

Can you look up the reported call for CSc1nsc(SCC(=O)Nc2cc(C(=O)O)ccc2C)n1 for me?
f

Can you look up the reported call for COc1ccc2ccccc2c1/C=N/NC(=O)c1cc(C)[nH]n1 for me?
f

Can you look up the reported call for O=C(NC1CCN(S(=O)(=O)c2ccc(F)cc2)CC1)c1ccccc1 for me?
f

Can you look up the reported call for C=CCn1c(-c2sc(-c3ccccc3)nc2C)n[nH]c1=S for me?
f

Can you look up the reported call for Cc1nc2ccccc2n1C(=O)N1CCOCC1 for me?
f

Can you look up the reported call for CCOC(=O)c1c(N)sc2c1CCCC2=O for me?
f

Can you look up the reported call for CN(C)c1ccc(C(=S)N2CCN(C(=S)Nc3ccc(Cl)cc3)CC2)cc1 for me?
f

Can you look up the reported call for O=C(CCc1nnc(CCCCc2ccccc2)o1)NC(c1cccnc1)C(F)(F)F (stereo unspecified) for me?
f

Can you look up the reported call for COC(=O)CCC(=O)N1CCCC(CO)(Cc2ccccc2)C1 (stereo unspecified) for me?
f

Can you look up the reported call for COc1cccc(NC(=O)CN(C)C(C)C(=O)Nc2ccc(C#N)cc2)c1 (stereo unspecified) for me?
f

Can you look up the reported call for Cc1cc2ccccc2n2c(SCC(=O)N3CCN(C(=O)c4ccco4)CC3)nnc12 for me?
f

Can you look up the reported call for Cc1nc2c(C(=O)NCc3cccs3)cnn2c(C)c1Cc1ccc(F)cc1 for me?
f

Can you look up the reported call for O=C(Cn1cc(/C=N/NC(=O)c2cccc(C(F)(F)F)c2)c2ccccc21)Nc1ccc(F)cc1 for me?
f

Can you look up the reported call for CCCCCOc1ccc(/C=C/C(=O)NCCc2nc3ccccc3[nH]2)cc1OC for me?
f

Can you look up the reported call for COc1ccc(-c2[nH]ncc2/C=N/NC(=O)c2cc(Br)ccc2O)c(OC)c1 for me?
f

Can you look up the reported call for CC(=O)N1N=C(c2ccncc2)OC1(Cc1ccccc1)Cc1ccccc1 for me?
f

Can you look up the reported call for COC(=O)c1ccc(C(NC(=O)OCc2ccccc2)/C(C)=C/[C@@H](C)C(=O)NCc2ccc(OC)c(OC)c2)cc1 (stereo partly specified) for me?
f

Can you look up the reported call for O=C(NC1CCN(C(=S)NCc2ccco2)CC1)c1ccc(F)cc1 for me?
f

Can you look up the reported call for COC(=O)c1scc(C)c1NC(=O)CSc1ccc(Cl)cc1 for me?
t

Can you look up the reported call for O.O.O.O=S(=O)([O-])OC[C@H]1O[C@@H](O[C@]2(COS(=O)(=O)[O-])O[C@H](OS(=O)(=O)[O-])[C@@H](OS(=O)(=O)[O-])[C@@H]2OS(=O)(=O)[O-])[C@H](OS(=O)(=O)[O-])[C@@H](OS(=O)(=O)[O-])[C@@H]1OS(=O)(=O)[O-].[Al] for me?
f

Can you look up the reported call for CC(C)/C=N/NC(=O)c1cc(Br)ccc1O for me?
t

Can you look up the reported call for c1ccc2cc3c(NCCN4CCOCC4)ccnc3cc2c1 for me?
f

Can you look up the reported call for CCOCCCNC(=O)C(NC(=O)c1ccc(=O)[nH]c1)c1ccc(Cl)cc1 (stereo unspecified) for me?
f

Can you look up the reported call for Cc1cc(C)c[n+](-c2nc3ccccc3nc2[N-]S(=O)(=O)c2cccs2)c1 for me?
t

Can you look up the reported call for O=C(CSc1cccc2cccnc12)N/N=C/c1cccnc1 for me?
f

Can you look up the reported call for Cc1ccc(S(=O)Cc2ccc(C(=O)N3CCN(C4CCCCC4)CC3)o2)cc1 (stereo unspecified) for me?
f

Can you look up the reported call for O=S(=O)([N-]c1nc2ccccc2nc1-[n+]1ccc(Cc2ccccc2)cc1)c1ccc(Br)s1 for me?
f

Can you look up the reported call for CCCCNc1nc2ccccc2nc1NS(=O)(=O)c1cccs1 for me?
f

Can you look up the reported call for CCOC(=O)C1CCN(S(=O)(=O)c2c(C)noc2C)CC1 for me?
f

Can you look up the reported call for CCCCn1c(N)c(N(CC(C)C)C(=O)c2cnc(C)cn2)c(=O)[nH]c1=O for me?
f

Can you look up the reported call for CCOC(=O)c1c(/N=C/C2C(=O)CC(C)(C)CC2=O)sc(C)c1C for me?
t

Can you look up the reported call for Cc1cccc(C)c1NC1=NC(=S)N(c2ccc(N(C)C)cc2)C1(C)C for me?
f

Can you look up the reported call for COc1ccc(C)cc1NC(=O)CSc1ccc(Cl)cc1 for me?
f

Can you look up the reported call for Cc1cc2ccccn2c1C(=O)c1cccc(S(=O)(=O)N2CCOCC2)c1 for me?
f

Can you look up the reported call for CCN(CC)S(=O)(=O)c1ccc2nc(CSc3nnnn3-c3ccc(O)cc3)[nH]c2c1 for me?
f

Can you look up the reported call for CC1(C)Cc2nc3sc4c(SCC(=O)NC(c5ccccc5)c5ccccc5)ncnc4c3cc2CO1 for me?
f
